Cited source: PubChem BioAssay (NCI)

# System: HOP-92 NSCLC
# EXPERIMENTAL PROTOCOL: NCI-60 one-dose screen, 48 h
# MEASUREMENT CONTEXT: 10 µM
The panel holds about 83,000 compounds, 20% with a hit somewhere; the sample as a whole holds those more often. Active and inactive are the calls of the source. How the source made its calls: active means growth percent below 10; inactive means the rest.
Write down one outcome, taken from active, inactive

*Q* Fill in: this test's call for C/C(=N\NC(=O)c1ccccc1N)c1ccccc1O is ___
*A* inactive

*Q* Record: CC1NC(=O)NC1CCCCCC(=O)O (stereo unspecified)
*A* inactive

*Q* Record: CCC(O)CC(CC)CO (stereo unspecified)
*A* inactive

*Q* Record: CC(=O)OCC1OC(OC2=C(CC=C(C)C)C(=O)c3ccccc3C2=O)C(OC(C)=O)C(OC(C)=O)C1OC(C)=O (stereo unspecified)
*A* active

*Q* Record: CC(=Nc1ccccc1)C1=C(O)C(Cc2cccc(F)c2)NC1=O (stereo unspecified)
*A* inactive

*Q* Record: Cn1cnc2nc(Cl)nc(Cl)c21
*A* inactive

*Q* Record: O=C(NCc1ccco1)Nc1c(Cl)cc(Cl)cc1Cl
*A* inactive

*Q* Record: CCCC1(c2ccccc2)NC(=O)NC1=O (stereo unspecified)
*A* inactive

*Q* Record: CCOC(=O)Nc1nn[nH]n1
*A* inactive

*Q* Record: COc1ccc(NC(=O)CCl)cc1
*A* inactive

*Q* Record: CC1C(=O)c2ccccc2CC1C(=O)O (stereo unspecified)
*A* inactive

*Q* Record: CCOc1ccc2[nH]c(=S)sc2c1
*A* inactive

*Q* Record: CCCCCCCCCCCCCCCCC1CC(=O)OC1=O (stereo unspecified)
*A* inactive

*Q* Record: COC(=O)c1ccc(C(C)C)cc1
*A* inactive

*Q* Record: Nc1ccc(N=Nc2ccc(S(=O)(=O)O)cc2)c2ccccc12
*A* inactive

*Q* Record: COc1ncnc2c1cnn2C
*A* inactive

*Q* Record: C[C@]12CC[C@@H]3c4ccc(OCC(=O)O)cc4CC[C@H]3[C@@H]1CCC2=O
*A* inactive

*Q* Record: CCCCC(CC)COC(C)=O (stereo unspecified)
*A* inactive

*Q* Record: O=c1cc(-c2ccccc2)[nH]c2c1CCCC2
*A* inactive

*Q* Record: CCOC(=O)CNN
*A* inactive

*Q* Record: N#CC(=Nc1cccc(F)c1)C1=C(O)c2ccccc2C1=O
*A* inactive

*Q* Record: N#CCc1ccc([N+](=O)[O-])cc1
*A* inactive

*Q* Record: COC(=O)c1[nH]c(=O)c(C#N)c(C(=O)OC)c1C(=O)c1ccccc1
*A* inactive

*Q* Record: O=C(O)c1ccc(S(=O)(=O)O)cc1
*A* inactive

*Q* Record: CC(=O)Oc1ccc(Br)cc1C(=O)O
*A* inactive

*Q* Record: O/N=C/c1ccc(O)cc1O
*A* inactive

*Q* Record: CCOC(=O)/C(=C/c1ccc(OC)cc1)N(CC)CC
*A* inactive

*Q* Record: COc1ccccc1C1OC2=Nc3cc(C)c(C)cc3NC2C1=O (stereo unspecified)
*A* inactive

*Q* Record: CC1CCCCN1C(=S)Nc1ccc(S(=O)(=O)N2CCCCC2)cc1 (stereo unspecified)
*A* inactive

*Q* Record: CC1(O)OC(COc2ccc(Cl)cc2)COC1O (stereo unspecified)
*A* inactive

*Q* Record: c1ncc2[nH]cnc2n1
*A* inactive

*Q* Record: O=C(O)c1cccc([N+](=O)[O-])c1
*A* inactive

*Q* Record: CCOC(=O)C1=C(C)NC(=O)NC1c1cccs1 (stereo unspecified)
*A* inactive

*Q* Record: OC1CCCc2ccccc21 (stereo unspecified)
*A* inactive

*Q* Record: CC(C)NC(=O)OCc1c(COC(=O)NC(C)C)c(-c2ccc(Cl)c(Cl)c2)n2c1SCC2
*A* inactive

*Q* Record: O=c1[nH][nH]c(=O)c2cc([N+](=O)[O-])ccc12
*A* inactive

*Q* Record: Oc1ccc(N=Nc2ccc(Br)cc2)c(O)c1
*A* inactive

*Q* Record: CCOc1ccc(/C=C/C(=O)c2ccccc2)cc1
*A* inactive

*Q* Record: S=C(Nc1ccccc1)N1CCCCC1
*A* inactive

*Q* Record: CCCOC(=O)C(O)c1ccccc1 (stereo unspecified)
*A* inactive

*Q* Record: COc1cc(/C=C(\C#N)C(=O)c2ccccc2)ccc1OCc1ccccc1
*A* inactive

*Q* Record: CCOC(=O)C1OC1c1ccccc1 (stereo unspecified)
*A* inactive

*Q* Record: O=c1c2ccccc2c(Br)c(Br)c2ccccc12
*A* inactive

*Q* Record: O=C(c1ccc(Cl)cc1)c1ccccc1Cl
*A* inactive

*Q* Record: COc1ccc2c(c1)CCc1c-2n[nH]c1-c1[nH]nc2c1CCc1cc(OC)ccc1-2
*A* inactive

*Q* Record: CC12CC3CC1C(C(=O)O2)C3C(=O)O (stereo unspecified)
*A* inactive
